target.system: CETP (Homo sapiens)
Construct: made in house; host or cells: CHO cells (serum-free conditioned medium)
Sequence (P11597 18-493): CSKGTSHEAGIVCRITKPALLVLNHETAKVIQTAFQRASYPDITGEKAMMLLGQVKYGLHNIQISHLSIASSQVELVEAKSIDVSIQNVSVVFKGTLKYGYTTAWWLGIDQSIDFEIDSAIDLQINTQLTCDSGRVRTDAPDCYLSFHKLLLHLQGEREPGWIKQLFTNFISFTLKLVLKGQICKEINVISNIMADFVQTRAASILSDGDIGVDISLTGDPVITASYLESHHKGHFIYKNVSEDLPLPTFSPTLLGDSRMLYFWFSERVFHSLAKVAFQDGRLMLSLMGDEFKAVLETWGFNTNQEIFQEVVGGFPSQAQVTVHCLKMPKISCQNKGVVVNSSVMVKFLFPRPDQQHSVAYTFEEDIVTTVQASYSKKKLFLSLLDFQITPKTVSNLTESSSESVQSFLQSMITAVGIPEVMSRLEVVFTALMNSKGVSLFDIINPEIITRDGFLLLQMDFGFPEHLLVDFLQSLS
protocol.description: CETP activity in vitro: transfer of [3H]CE from HDL donor to LDL acceptor particles
Type: biochemical
test.settings: 50% inhibition of [3H]CE transfer from HDL to LDL, 2 hours at 37° C.; read-out: IC50(μm)
measurement.type: pIC50
Entry type: numeric. Quantity: pIC50, the -log10 of concentration in molar units.

COC(=O)c1c(C(F)F)nc(C(F)(F)F)c(N=C(OC)SC)c1CC(C)C [Compound 27]    4.40

Ask: Param item = CCOC(=O)c1c(C(F)(F)F)nc(C(F)(F)F)c(C(=O)OC)c1OCC [Compound 52] ; retrieve measured pIC50.
Reply: 4.30

Ask: Param item = COC(=O)c1c(C(F)F)nc(C(F)(F)F)c(C(N)=S)c1CC(C)C [Compound 77] ; retrieve measured pIC50.
Reply: 4.15

Ask: Param item = COC(=O)c1c(C(F)F)nc(C(F)(F)F)c(C(=O)Oc2ccc(C(C)C)cc2Cc2ccc(F)cc2)c1CC(C)C [Compound 170] ; retrieve measured pIC50.
Reply: 4.40

Ask: Param item = COC(=O)c1c(C(F)F)nc(C(F)(F)F)c(CSC(=O)N(C)C)c1CC(C)C [Compound 79] ; retrieve measured pIC50.
Reply: 4.12

Ask: Param item = CCOC(=O)c1c(C(F)F)nc(C(F)(F)F)c(C(=O)OCC)c1SC1CCCC1 [Compound 22] ; retrieve measured pIC50.
Reply: 4.40

Ask: Param item = COC(=O)c1c(OC(=O)N(c2ccccc2)c2ccccc2)cc(C(F)(F)F)nc1C(F)(F)F [Compound 25] ; retrieve measured pIC50.
Reply: 4.40
